// data source = PubChem BioAssay (NCI)

Test system: SNB-19 CNS
assay-comment: NCI tumour cell line growth inhibition, 48 h

compound	value-operator	TGI, µM
C=C1[C@H](OCC(C)C)[C@@H](O)[C@@H](OC(=O)c2cccnc2)C(C)(C)/C=C/[C@H](C)[C@H](OC(C)=O)[C@@]2(O)C[C@@](C)(OC(C)=O)[C@H](OC(=O)c3ccccc3)[C@@H]2[C@H]1OC(C)=O	>	5
CCN(CC)CC(C)C(=O)/C=C/c1ccc(C)cc1 (centres undefined)	=	30.5
C/C=C(/C)C(=O)O[C@H]1[C@H]2[C@@H]([C@@H](OC(C)=O)[C@H](C)C(=O)[C@@]34C[C@@H](C)C(=O)[C@]3(/C=C(\C)[C@H]1OC(C)=O)O4)C2(C)C	=	18.4
Cn1cc(C2=C(c3cn(-c4ccccc4)c4ccccc34)C(=O)NC2=O)c2ccccc21	>	25
COc1ccc(C(=NN=C(N)N)c2ccc(OC)cc2)cc1	=	16.4
O=C(/C=C/c1ccccc1O)c1ccc([N+](=O)[O-])cc1	=	35.8
N#CC(C#N)=C1CCOc2ccc(F)cc21	=	96.1
CCOC(=O)Cn1c2ccc(Br)cc2c2nc3ccccc3nc21	>	100
OCC[N+]12CCCN1CCC2	>	100
